target: IRAK3 (Homo sapiens, UniProt Q9Y616); construct: IRAK Endogenous HTRF Degradation Assay; endogenous in cells; assay: IRAK3 biochemical binding assay (LanthaScreen Eu Kinase Binding, TR-FRET)
IC50 values, listed per item
Expressed in nM, but write only the number.

See these solved cases before continuing.
[
  {
    "molecule": "Cc1cccc(-c2cnc(Nc3cnn(C4CCN(CCCCN5CCN(c6ccc(C7CCC(=O)NC7=O)cc6)CC5)CC4)c3)c3nccn23)c1 (stereo not drawn) [Compound 3]",
    "units_symbol": "nM",
    "IC50": 1.3
  },
  {
    "molecule": "Cc1cccc(-c2cnc(Nc3cnn(C4CCN(CCCN5CCN(c6ccc(C7CCC(=O)NC7=O)cc6)CC5)CC4)c3)c3nccn23)c1 (stereo not drawn) [Compound 4]",
    "units_symbol": "nM",
    "IC50": 2.3
  }
]

For Cc1cccc(-c2cnc(Nc3cnn(C4CCN(CCN5CCN(c6ccc7c(c6)C(=O)N(C6CCC(=O)NC6=O)C7=O)CC5)CC4)c3)c3nccn23)c1 (stereo not drawn) [Compound 2] , what is its reported IC50?
4.2

Please look up its IC50: O=C1CCC(c2ccc(N3CCN(CCN4CCC(n5cc(Nc6ncc(-c7ccccc7F)n7ccnc67)cn5)CC4)CC3)cc2)C(=O)N1 (stereo not drawn) [Compound 75]
14

Reported IC50 for Cc1cc(-c2cnc(Nc3cnn([C@H]4CC[C@H](CCN5CCN(c6cccc7c(C8CCC(=O)NC8=O)nn(C)c67)CC5)CC4)c3)c3nccn23)c(F)cc1F (stereo partly drawn) [Compound 117] : what is it?
1

If you can, please state the reported IC50 value of Cc1cc(-c2cnc(Nc3cnn([C@H]4CC[C@H](CCN5CCN(c6ccc([C@@]7(C)CCC(=O)NC7=O)cc6)CC5)CC4)c3)c3nccn23)c(F)cc1F [Compound 81] .
10

###

Target: IRAK3 (Homo sapiens, UniProt Q9Y616)
Construct: IRAK Endogenous HTRF Degradation Assay; endogenous in cells
Sequence (Q9Y616 1-596): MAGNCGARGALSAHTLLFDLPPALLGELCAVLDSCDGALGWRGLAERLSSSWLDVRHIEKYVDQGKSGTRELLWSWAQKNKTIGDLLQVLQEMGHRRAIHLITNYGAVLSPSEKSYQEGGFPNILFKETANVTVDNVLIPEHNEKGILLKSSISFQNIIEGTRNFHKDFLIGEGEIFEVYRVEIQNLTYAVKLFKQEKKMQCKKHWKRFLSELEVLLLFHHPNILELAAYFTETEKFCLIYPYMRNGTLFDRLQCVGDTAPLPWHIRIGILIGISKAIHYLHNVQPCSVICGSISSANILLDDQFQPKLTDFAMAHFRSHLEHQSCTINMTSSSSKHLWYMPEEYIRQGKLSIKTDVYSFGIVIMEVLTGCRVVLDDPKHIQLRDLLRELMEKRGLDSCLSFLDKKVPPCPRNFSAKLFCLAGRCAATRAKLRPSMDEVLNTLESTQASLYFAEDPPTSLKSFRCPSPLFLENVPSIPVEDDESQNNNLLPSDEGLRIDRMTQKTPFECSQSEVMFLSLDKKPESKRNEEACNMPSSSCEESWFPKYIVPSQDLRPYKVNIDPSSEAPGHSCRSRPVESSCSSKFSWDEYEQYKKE
Assay: IRAK endogenous HTRF degradation assay (Total-IRAK3 HTRF kit)
Type: cell-based
Conditions: overnight incubation, lowest percentage of protein remaining
Please respond with YES when measured IRAK3 HTRF degradation Ymin is strictly beneath 20%, and with NO in all other cases.

[
  {
    "compound": "Cc1cc(-c2cnc(Nc3cnn([C@H]4CC[C@H](CCN5CCN(c6ccc([C@]7(C)CCC(=O)NC7=O)cc6)CC5)CC4)c3)c3nccn23)c(F)cc1F [Compound 82]",
    "assigned_category": "NO"
  },
  {
    "compound": "Cc1cccc(-c2cnc(Nc3cnn(C4CCN(CCCN5CCN(c6ccc(C7CCC(=O)NC7=O)cc6)CC5)CC4)c3)c3nccn23)c1 (stereo not drawn) [Compound 4]",
    "assigned_category": "YES"
  },
  {
    "compound": "Cc1cc(-c2cnc(Nc3cnn([C@H]4CC[C@H](CCN5CCN(c6ccc(C7CCC(=O)NC7=O)cc6)CC5)CC4)c3)c3nccn23)c(F)cc1F (stereo partly drawn) [Compound 11]",
    "assigned_category": "YES"
  }
]

Given the entry Cc1cc(-c2cnc(Nc3cnn(C4CCN(C(=O)CN5CCN(c6ccc(C7CCC(=O)NC7=O)cc6)CC5)CC4)c3)c3nccn23)c(F)cc1F (stereo not drawn) [Compound 23] , would its reported IRAK3 HTRF degradation Ymin be below 20%?
YES

Record Cc1cccc(-c2cnc(Nc3cnn([C@H]4CC[C@@H](CCN5CCN(c6ccc(C7CCC(=O)NC7=O)cc6)CC5)CC4)c3)c3nccn23)c1 (stereo partly drawn) [Compound 45] : is its IRAK3 HTRF degradation Ymin strictly below 20%?
YES

Consider Cn1cc(-c2cnc(Nc3cnn(C4CCN(CCN5CCN(c6ccc(C7CCC(=O)NC7=O)cc6)CC5)CC4)c3)c3nccn23)cn1 (stereo not drawn) [Compound 73] . Does its IRAK3 HTRF degradation Ymin lie strictly below 20%?
YES

Source listed as patent US20260216347A1.
